Tested on: MALME-3M melanoma
ASSAY_NAME: NCI tumour cell line growth inhibition, 48 h; in the data active = GI50 below about 0.43 µM; inactive = the rest
Hi! Could you answer with just one of these? TRUE (active), FALSE (inactive)

Take a look at these entries with their results.
{"COMPOUND": "Cc1cc(O)c(C2=NN(c3ccc(S(N)(=O)=O)cc3)C(c3ccc(Cl)cc3)C2)c(C)c1Cl (stereo not drawn)", "CLASSIFICATION": "FALSE"}
{"COMPOUND": "COc1cc2c(cc1OCCCCCCN1CCN(CC(=O)Nc3ccc(Cl)cc3C(=O)c3ccccc3Cl)CC1)N=CC1CCCN1C2=O (stereo not drawn)", "CLASSIFICATION": "TRUE"}

Consider the record given below.
Exercise: Which result was noted for this compound in the test: `Cc1nnc2n1N=C(c1ccc(Cl)cc1Cl)/C(=C/c1ccc(-c3ccc([N+](=O)[O-])cc3Cl)o1)S2`
Solution: FALSE

src = PubChem BioAssay (NCI)
